- Test system: BHK cells
- assayComment: Cell viability ATP assay, BHK cells
- Assay type: cell-based, hamster
- measurementSetup: Mesocricetus auratus, BHK, 48 h, read-out: Cell viability IC50
compounds and their reported pIC50
Quick note: pIC50 values are minus log10 of concentrations in mol/L.

Recorded results for 3 compounds are shown here.
[
  {
    "compound": "O=C1C[C@@H](c2ccc(O)cc2)Oc2cc(O)cc(O)c21",
    "pIC50": 4.03
  },
  {
    "compound": "CN1CCC(CN2c3ccccc3Sc3ccccc32)C1 (stereo not drawn)",
    "pIC50": 4.20
  },
  {
    "compound": "OCCN1CCN(CCCN2c3ccccc3Sc3ccc(Cl)cc32)CC1",
    "pIC50": 3.81
  }
]

Req: // map CCN(CC)C(C)CN1c2ccccc2Sc2ccccc21 (stereo not drawn) to recorded pIC50 (system: BHK cells)
Resp: 3.78

###

Observed SFV replication % left (surviving fraction, remaining percentage of SFV replication) for SFV-Rluc, reported per entry below.
The number alone won't do; follow it with the unit.

Recorded results for 3 molecules are shown here.
[
  {
    "compoundSmiles": "COc1c2occc2cc2ccc(=O)oc12",
    "reading": "86.7%"
  },
  {
    "compoundSmiles": "C=CC[C@]1(O)CC[C@H]2[C@@H]3CCC4=CCCC[C@@H]4[C@H]3CC[C@@]21C",
    "reading": "37.2%"
  },
  {
    "compoundSmiles": "O=c1c(O)c(-c2ccc(O)c(O)c2)oc2cc(O)cc(O)c12",
    "reading": "125.8%"
  }
]

Req: // map C[C@H](CCC(=O)O)[C@H]1CC[C@H]2[C@@H]3CC[C@@H]4C[C@H](O)CC[C@]4(C)[C@H]3C[C@H](O)[C@]12C to recorded SFV replication % left (surviving fraction, remaining percentage of SFV replication) (system: SFV-Rluc)
Resp: 86.5%

###

Observed SFV replication % left (surviving fraction, remaining percentage of SFV replication) for SFV-Rluc, reported per entry below.
The response must be a number in % with no trailing unit.

[
  {
    "molecule": "O=c1c(O)c(-c2ccc(O)c(O)c2)oc2cc(O)c(O)c(O)c12",
    "reading": 90.2
  },
  {
    "molecule": "CN1C(=O)C(O)N=C(c2ccccc2)c2cc(Cl)ccc21 (stereo not drawn)",
    "reading": 91.5
  }
]

With those in mind, consider the next molecule.
Req: Which SFV replication % left (surviving fraction, remaining percentage of SFV replication) is reported for this molecule? C[C@@H]1O[C@@H](O[C@H]2C[C@@H](O)[C@]3(CO)[C@H]4[C@H](O)C[C@]5(C)[C@@H](C6=CC(=O)OC6)CC[C@]5(O)[C@@H]4CC[C@]3(O)C2)[C@H](O)[C@H](O)[C@H]1O
Resp: 90.9

###

Observed SFV replication % left (surviving fraction, remaining percentage of SFV replication) for SFV-Rluc, reported per entry below.
The response must be a number in % with no trailing unit.

[
  {
    "compound": "O=S(=O)(O)NC1CCCCC1 [Cyclamic acid]",
    "assayTarget": "SFV-Rluc",
    "measurementUnit": "%",
    "reading": 74.9
  },
  {
    "compound": "CC(C)(C)NCC(O)c1ccc(O)c(CO)c1.CC(C)(C)NCC(O)c1ccc(O)c(CO)c1.O=S(=O)(O)O (racemic) [(+/-) Salbutamol sulfate]",
    "assayTarget": "SFV-Rluc",
    "measurementUnit": "%",
    "reading": 105.0
  },
  {
    "compound": "Oc1cc(O)c2c(c1)O[C@H](c1ccc(O)c(O)c1)[C@H](O)[C@H]2c1c(O)cc(O)c2c1O[C@H](c1ccc(O)c(O)c1)[C@@H](O)C2 [Procyanidin B1]",
    "assayTarget": "SFV-Rluc",
    "measurementUnit": "%",
    "reading": 128.1
  },
  {
    "compound": "Cc1ccc(O)c(O)c1 [4-Methyl pyrocatechol]",
    "assayTarget": "SFV-Rluc",
    "measurementUnit": "%",
    "reading": 111.1
  },
  {
    "compound": "O=C(O[C@@H]1Cc2c(O)cc(O)cc2O[C@@H]1c1cc(O)c(O)c(O)c1)c1cc(O)c(O)c(O)c1 [(-)-Epigallocatechin gallate]",
    "assayTarget": "SFV-Rluc",
    "measurementUnit": "%",
    "reading": 155.3
  }
]

With those in mind, consider the next compound.
Req: Which SFV replication % left (surviving fraction, remaining percentage of SFV replication) is reported for this compound? O=c1cc(-c2ccc(O)c(O)c2)oc2cc(O)cc(O)c12 [Luteolin]
Resp: 71.3
